# tested on: HLA-A*0101 (human)
# procedure details: competition with 125I probe peptide, purified HLA class I
value kind: IC50 (nM)
Supply the numeric figure in nM, leaving out any unit text.

IC50 in this record for GTDKSVTCTY [57.0126 GTDKSVTCTY p53.117.D3] : 42.4
